These measurements were taken from patent US9840481B2.

Molecular target: human α7 nAChR stably expressed in a HEK cell line (with human RIC-3) (Homo sapiens, UniProt P36544)
Construct: PrecisION hnAChR α7/RIC-3
Sequence (P36544 23-502): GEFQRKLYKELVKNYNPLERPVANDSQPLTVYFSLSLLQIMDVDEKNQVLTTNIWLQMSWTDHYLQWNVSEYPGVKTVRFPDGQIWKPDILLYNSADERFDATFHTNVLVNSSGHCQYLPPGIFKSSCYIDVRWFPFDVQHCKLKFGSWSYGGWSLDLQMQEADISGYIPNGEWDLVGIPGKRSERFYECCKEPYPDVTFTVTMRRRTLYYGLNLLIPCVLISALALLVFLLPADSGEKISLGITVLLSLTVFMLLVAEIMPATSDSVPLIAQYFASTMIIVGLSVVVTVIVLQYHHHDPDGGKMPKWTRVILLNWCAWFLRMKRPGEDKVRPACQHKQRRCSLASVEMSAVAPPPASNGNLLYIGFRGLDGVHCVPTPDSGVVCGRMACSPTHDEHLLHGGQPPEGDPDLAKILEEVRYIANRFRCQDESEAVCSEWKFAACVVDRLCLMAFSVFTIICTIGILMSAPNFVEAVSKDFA
Test: Automated patch-clamp electrophysiology functional assay (Assay A), IonFlux HT, whole-cell population patch
Assay type: cell-based
Settings: automated patch-clamp electrophysiology functional assay (Assay A); potency class by EC50; read-out: α7 nAChR Potency
Method: The α7 nAChR positive allosteric modulator (PAM) activity of the present compounds may be tested using assays known in the art. […] The compounds were assessed for their ability to modulate the function of the human α7 nAChR stably expressed in a HEK cell line both in the presence, and in the absence of the natural α7 agonist acetylcholine. By performing a series of such measurements at different concentrations, the effective concentration of the α7 nAChR PAMs (EC50) was determined. […]
pEC50: −log10 of the molar value.
readout-type: pEC50

INSERT INTO measurements (compound, value_observed) VALUES
  ('NS(=O)(=O)c1ccc([C@@H]2C[C@H]2c2nc(-c3cccnc3C3CC3)no2)cc1 [Example D24]', '6.30 to 7.00'),
  ('NS(=O)(=O)c1ccc([C@H]2C[C@@H]2c2nc(-c3ccccc3)no2)cc1 [Example A5]', '4.30 to 5.30'),
  ('Cc1ccc(-c2noc([C@@H]3C[C@H]3c3ccc(S(N)(=O)=O)cc3)n2)cc1 [Example C19]', '5.30 to 6.30'),
  ('CC1(C)[C@H](c2ccc(S(N)(=O)=O)cc2)[C@H]1c1nc(-c2cc(F)ccc2F)co1 [Example J3]', '5.30 to 6.30'),
  ('CC1(C)[C@@H](c2ccc(S(N)(=O)=O)cc2)[C@@H]1c1csc(C2CCCC2)n1 [Example L15]', '6.30 to 7.00'),
  ('CC1(C)[C@H](c2ccc(S(N)(=O)=O)cc2)[C@H]1c1nc(CC2CC2)no1 [Example B10]', '5.30 to 6.30'),
  ('NS(=O)(=O)c1ccc(C2CC2c2coc(-c3ccccc3)n2)cc1 (centres unmarked) [Example 24]', '5.30 to 6.30'),
  ('CC(C)c1noc([C@@H]2[C@@H](c3ccc(S(N)(=O)=O)cc3)C2(F)F)n1 [Example 7]', '5.30 to 6.30');

====

Target: human α7 nAChR stably expressed in a HEK cell line (with human RIC-3) (Homo sapiens, UniProt P36544)
Construct: PrecisION hnAChR α7/RIC-3
Assay: Automated patch-clamp electrophysiology functional assay (Assay A), IonFlux HT, whole-cell population patch
Type: cell-based
Conditions: automated patch-clamp electrophysiology functional assay (Assay A); potency class by EC50; read-out: α7 nAChR Potency
Here, each record is paired with measured EC50 data.
readout-type: EC50

INSERT INTO assay_data (molecule, readout_type, value_observed) VALUES
  ('NS(=O)(=O)c1ccc([C@@H]2C[C@H]2c2nc(-c3cnccc3C(F)(F)F)no2)cc1 [Example D25]', 'EC50', '500 to 5000 nM'),
  ('Cc1noc([C@H]2[C@H](c3ccc(S(N)(=O)=O)cc3)C2(C)C)n1', 'EC50', '5000 to 50000 nM'),
  ('Cc1ccc(F)cc1-c1noc([C@H]2[C@H](c3ccc(S(N)(=O)=O)cc3)C2(C)C)n1', 'EC50', '500 to 5000 nM'),
  ('CC1(C)[C@@H](c2ccc(S(N)(=O)=O)cc2)[C@@H]1c1nc(C2CCCC2)co1', 'EC50', '100 to 500 nM'),
  ('NS(=O)(=O)c1ccc([C@H]2[C@H](c3nc(C4CCCCC4)cs3)C2(F)F)cc1', 'EC50', '100 to 500 nM'),
  ('CC1(C)[C@H](c2ccc(S(N)(=O)=O)cc2)[C@H]1c1nc(C2CCc3cc(F)ccc32)no1 (stereo partly shown)', 'EC50', '500 to 5000 nM'),
  ('NS(=O)(=O)c1ccc([C@@H]2C[C@H]2c2nc(-c3cc(F)ccc3F)no2)cc1', 'EC50', '100 to 500 nM'),
  ('CC(C)c1cnc([C@H]2[C@H](c3ccc(S(N)(=O)=O)cc3)C2(C)C)s1', 'EC50', '100 to 500 nM'),
  ('CC1(C)[C@@H](c2ccc(S(N)(=O)=O)cc2)[C@@H]1c1nc(-c2ccc(F)cc2F)no1', 'EC50', '500 to 5000 nM'),
  ('CC1(C)[C@@H](c2ccc(S(N)(=O)=O)cc2)[C@@H]1c1noc(-c2ccc3nc(O)sc3c2)n1', 'EC50', '100 to 500 nM'),
  ('CC1(C)[C@H](c2ccc(S(N)(=O)=O)cc2)[C@H]1c1nc(-c2ccccc2F)no1', 'EC50', '500 to 5000 nM'),
  ('CC1(C)[C@@H](c2ccc(S(N)(=O)=O)cc2)[C@@H]1c1nnc(-c2c(F)cccc2C(F)(F)F)o1', 'EC50', '500 to 5000 nM'),
  ('Cc1ncccc1-c1noc([C@H]2[C@H](c3ccc(S(N)(=O)=O)cc3)C2(C)C)n1', 'EC50', '500 to 5000 nM'),
  ('CC1(C)[C@@H](c2ccc(S(N)(=O)=O)cc2)[C@@H]1c1nc(CC(F)(F)F)no1', 'EC50', '500 to 5000 nM'),
  ('CC(c1nc([C@H]2[C@H](c3ccc(S(N)(=O)=O)cc3)C2(C)C)no1)n1ccnc1 (stereo partly shown)', 'EC50', '5000 to 50000 nM'),
  ('CC1(C)[C@@H](c2ccc(S(N)(=O)=O)cc2)[C@@H]1c1noc(-c2cnccc2C(F)(F)F)n1', 'EC50', '100 to 500 nM'),
  ('NS(=O)(=O)c1ccc([C@@H]2C[C@H]2c2nnc(C3CCCC3)s2)cc1', 'EC50', '500 to 5000 nM'),
  ('CC1(C)[C@@H](c2ccc(S(N)(=O)=O)cc2)[C@@H]1c1noc(C(O)C(F)(F)F)n1 (stereo partly shown)', 'EC50', '500 to 5000 nM'),
  ('CC1(C)C(c2ccc(S(N)(=O)=O)cc2)C1c1noc(C2CC3CN(C4CCCC4)C(=O)C3C2)n1 (stereo not shown)', 'EC50', '500 to 5000 nM'),
  ('NS(=O)(=O)c1ccc([C@@H]2C[C@H]2c2ncc(-c3ccccc3)o2)cc1', 'EC50', '100 to 500 nM'),
  ('CC1(C)[C@H](c2ccc(S(N)(=O)=O)cc2)[C@H]1c1nc(-c2c(F)cccc2F)no1', 'EC50', '500 to 5000 nM'),
  ('CC1(C)[C@@H](c2ccc(S(N)(=O)=O)cc2)[C@@H]1c1ncc(C2CCCC2)s1', 'EC50', '500 to 5000 nM'),
  ('CC1(C)[C@@H](c2ccc(S(N)(=O)=O)cc2)[C@@H]1c1nc(-c2ccc(F)cc2C(F)(F)F)no1', 'EC50', '500 to 5000 nM'),
  ('CC(C)c1noc([C@H]2[C@H](c3ccc(S(N)(=O)=O)cc3)C2(F)F)n1 [Example D1]', 'EC50', '100 to 500 nM'),
  ('CC1(C)[C@@H](c2ccc(S(N)(=O)=O)cc2)[C@@H]1c1noc(-c2ccc(C#N)cc2)n1', 'EC50', '500 to 5000 nM'),
  ('CC1(C)[C@H](c2ccc(S(N)(=O)=O)cc2)[C@H]1c1nc(C2CCOC2)no1 (stereo partly shown)', 'EC50', '5000 to 50000 nM'),
  ('CC1(C)[C@H](c2ccc(S(N)(=O)=O)cc2)[C@H]1c1ncc(C2CCCC2)s1', 'EC50', '500 to 5000 nM'),
  ('NS(=O)(=O)c1ccc([C@@H]2C[C@H]2c2cnc(-c3ccccc3)o2)cc1', 'EC50', '500 to 5000 nM'),
  ('NS(=O)(=O)c1ccc([C@@H]2C[C@H]2c2noc(-c3cccc(F)c3)n2)cc1', 'EC50', '100 to 500 nM'),
  ('CC1(C)[C@@H](c2ccc(S(N)(=O)=O)cc2)[C@@H]1c1noc(CC2CCCO2)n1 (stereo partly shown)', 'EC50', '500 to 5000 nM'),
  ('CC1(C)[C@@H](c2ccc(S(N)(=O)=O)cc2)[C@@H]1c1nnc(-c2ccccc2C(F)(F)F)o1', 'EC50', '500 to 5000 nM');
